Biological target: furin, P09958;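 further: purified furin at 1:10 enzyme:substrate in 50 mM HEPES pH 7.5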
Sequence (P09958 whole entry): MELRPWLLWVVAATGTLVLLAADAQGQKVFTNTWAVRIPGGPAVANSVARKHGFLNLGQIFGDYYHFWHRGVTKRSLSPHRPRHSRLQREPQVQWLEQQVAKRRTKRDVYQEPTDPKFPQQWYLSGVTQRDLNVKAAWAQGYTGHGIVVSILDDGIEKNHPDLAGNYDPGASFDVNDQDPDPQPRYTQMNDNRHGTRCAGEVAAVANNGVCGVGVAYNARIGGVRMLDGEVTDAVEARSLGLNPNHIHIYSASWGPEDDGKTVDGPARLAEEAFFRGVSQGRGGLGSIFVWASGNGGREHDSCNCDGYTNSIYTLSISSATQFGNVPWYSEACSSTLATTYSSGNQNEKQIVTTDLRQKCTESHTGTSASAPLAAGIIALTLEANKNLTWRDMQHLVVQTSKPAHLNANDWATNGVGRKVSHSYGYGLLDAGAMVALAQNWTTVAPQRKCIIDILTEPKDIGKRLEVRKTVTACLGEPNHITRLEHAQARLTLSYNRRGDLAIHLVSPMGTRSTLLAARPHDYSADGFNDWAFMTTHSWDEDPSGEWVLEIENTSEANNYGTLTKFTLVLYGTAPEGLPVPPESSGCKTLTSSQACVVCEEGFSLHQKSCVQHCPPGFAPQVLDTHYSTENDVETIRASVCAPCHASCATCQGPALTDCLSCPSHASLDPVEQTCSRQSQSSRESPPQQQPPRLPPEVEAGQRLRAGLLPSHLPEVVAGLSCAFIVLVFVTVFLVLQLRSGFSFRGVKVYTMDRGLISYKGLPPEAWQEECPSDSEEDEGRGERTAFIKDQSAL
Experiment: furin cleavage Z-score vs untreated control; higher = more cleavage, active = 3.5 or more, inactive = 1 or less, 8 variable residues between constant flanks
Details: 7.5 min
This is one part of the list. The true hit rate is not given.
Outcome codes: T for active, F for inactive

{"columns": ["CONSTRUCT_SEQUENCE", "DISCRETE_LABEL"],
 "data": [
  ["CAELGDDGRTAGNASASA [FS-1627]", "F"],
  ["CAELLRKKRTAGNASASA [FS-991]", "T"],
  ["CAVVCCSMAYAGNASASA [HC2063]", "F"],
  ["CAIRSGKKRTAGNASASA [FS-669]", "F"],
  ["CAYRFVAPGEAGNASASA [HC910]", "F"],
  ["CAPPPRKKRTAGNASASA [HC1323]", "T"],
  ["CAILSRAKRPAGNASASA [FS-252]", "F"]
]}
